Values compiled from PubChem BioAssay AID1159580.

Listed next: entries and their corresponding normalized growth.
- assay.comment: chemical genetic growth profiling, strain panel (AID 1159580);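 also: tested at 20 µM; growth read once vehicle control cultures reached saturation at 30 °C; 1 = growth at the plate median or of vehicle wells; lower values mean less growth of the strain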
- test.settings: S. cerevisiae deletion strains, growth OD, locus YER155C, strain BEM2, active compounds read low
In all, about 5,500 compounds went through this assay and about 2,000 (36%) were called active. About 18% were inconclusive and are not listed. This is one part of the list.
Provide a numeric answer; units are not to be included.

Below: 4 compounds and their reported normalized growth.
1) CC[C@H](CCC(C)[C@H]1CCC2C3CCC4C[C@@H](O)CC[C@]4(C)C3CC[C@@]21C)C(C)C (stereo not given in full) :: 1.01
2) COc1ccc(C(=O)CC(=O)c2ccc(C(C)(C)C)cc2)cc1 :: 0.94
3) CC(CCC(=O)O)[C@H]1CCC2C3C(C[C@H](O)[C@@]21C)[C@@]1(C)CC[C@@H](O)C[C@H]1C[C@H]3O (stereo not given in full) :: 1.01
4) CC(CCC(=O)O)[C@H]1CCC2C3C[C@H](O)[C@@H]4C[C@H](O)CC[C@]4(C)C3CC[C@@]21C (stereo not given in full) :: 1.02

Moving on to another compound below.
I'd like to know its normalized growth. The compound in question is CC(C)CCCC(C)C1CCC2C3CC[C@H]4CCCC[C@]4(C)C3CC[C@]12C (stereo not given in full)
0.998

###

- assay.comment: chemical genetic growth profiling, strain panel (AID 1159580)
- test.settings: S. cerevisiae deletion strains, growth OD, locus YJL157C, strain FAR1, active compounds read low
The campaign covered roughly 5,500 compounds. About 2,000 (36%) were called active. Another 18% or so got no clear call; they are omitted. This is one part of the list.
# normalized growth listing for each entry below

Please review the following examples before continuing.
1. CC1C/C(=N/Nc2ccc(Br)cc2)c2cc(Cl)ccc2S1(=O)=O (stereo unspecified) :: 0.801 (inactive)
2. CC1C/C(=N/Nc2ccc(Br)cc2)c2cc(Cl)ccc2S1 (stereo unspecified) :: 0.168 (active)
3. O=C(NNc1ccc(Cl)cc1)c1ccc(F)cc1F :: 0.736 (inactive)

I would be grateful if you could share the reported normalized growth for `NNC(=O)c1csc(Cc2c(Cl)sc3ccc(Cl)cc23)n1` .
0.994 (inactive)

###

- assay.comment: chemical genetic growth profiling, strain panel (AID 1159580)
- test.settings: S. cerevisiae deletion strains, growth OD, locus YBR231C, strain swc5, active compounds read low
In all, about 5,500 compounds went through this assay and about 2,000 (36%) were called active. About 18% were inconclusive and are not listed. This is one part of the list.
So basically, if normalized growth comes in under 1 it's 1, and if it's 1 or more it's -1.

1) COc1c2ccccc2nc2occc12 :: 1
2) CSc1ccc2c(c1)N(CCC1CCCCN1C)c1ccccc1S2 (configuration not stated) :: 1

State whether 1 exceeds normalized growth recorded for CC(CN1c2ccccc2Sc2ccccc21)N(C)C (configuration not stated) .
1

API: query returns whether the compound falls strictly under 1 in normalized growth. Query: CC(CN(C)C)CN1c2ccccc2Sc2ccccc21 (configuration not stated)
-1

###

Measured normalized growth by item
- assay.comment: chemical genetic growth profiling, strain panel (AID 1159580)
- test.settings: S. cerevisiae deletion strains, growth OD, locus YJR066W, strain TOR1, active compounds read low
Screen size: about 5,500 compounds; about 2,000 (36%) were called active. Not shown: some 18% with an inconclusive outcome. This is one part of the list.
Reply briefly: the number, and no unit.

Any idea what its normalized growth is? The molecule is `C=C1[C@H]2CC[C@@]3(C)[C@H](c4ccoc4)OC(=O)C[C@]13O[C@H]1C[C@H](O)C(C)(C)[C@H](CC(=O)OC)[C@]12C`
0.936

What does the data say about its normalized growth? Entry: `S=P(N1CC1)(N1CC1)N1CC1`
0.976

For `CN(C)N=Nc1nc[nH]c1C(N)=O` , what is its reported normalized growth?
1

###

// reported normalized growth for each item listed
- assay.comment: chemical genetic growth profiling, strain panel (AID 1159580)
- test.settings: S. cerevisiae deletion strains, growth OD, strain wtn01, active compounds read low
The campaign covered roughly 5,500 compounds. About 2,000 (36%) were called active. Another 18% or so got no clear call; they are omitted. This is one part of the list.

Previously resolved entries follow.
1. CCCCCC1C(=O)CCC1CC(=O)OC (stereo not given) :: 0.962 (inactive)
2. CN1CC(CNC(=O)OCc2ccccc2)CC2c3cccc4c3c(cn4C)CC21 (stereo not given) :: 1.01 (inactive)
3. COc1c2ccccc2nc2occc12 :: 0.894 (active)
4. CC(=O)O[C@H]1CC[C@]2(C)C3C(=O)[C@@H](OC(C)=O)[C@@]4(C)C(C[C@@H]5O[C@]6(CCC(C)CO6)[C@@H](C)[C@@H]54)C3CC[C@H]2C1 (stereo not given in full) :: 1.01 (inactive)
5. COc1ccc(C(=O)N2CCCC2=O)cc1 :: 0.984 (inactive)
6. CC(=O)O[C@H]1CC[C@]2(C)C3=CC(=O)[C@@]4(C)C(C[C@@H]5OC6(OCC(C)CC6Br)[C@@H](C)[C@@H]54)C3CC[C@H]2C1 (stereo not given in full) :: 1.01 (inactive)

Fill in the blank: the reported normalized growth of `Cc1cc(O)c(C=O)c2c1C(=O)Oc1c(COC(=O)/C=C/C(=O)O)c(O)c(C(=O)O)c(C)c1O2` is ____.
0.945 (inactive)

Value lookup for normalized growth; key = `NC(N)=O`
0.999 (inactive)

###

- assay.comment: chemical genetic growth profiling, strain panel (AID 1159580)
- test.settings: S. cerevisiae deletion strains, growth OD, locus YLR268W, strain sec22
About 2,000 (36%) of roughly 5,500 compounds were called active. Another 18% or so got no clear call; they are omitted. Rule as the data show it: active = normalized growth mostly below about 0.91 (no sharp cut-off); inconclusive = no clear call, values can overlap the other calls; inactive = mostly above about 0.92. This is one part of the list.
Answer with one of the outcomes YES = active, NO = inactive

Some solved entries appear below for comparison.
1) NC(Cc1ccc(F)cc1)C(=O)O (configuration not stated) :: NO
2) Cc1nc2sccn2c(=O)c1CCN1CCC(=C(c2ccc(F)cc2)c2ccc(F)cc2)CC1 :: YES

What was the test verdict on `N[C@@H](Cc1cc(I)c(Oc2cc(I)c(O)c(I)c2)c(I)c1)C(=O)O` ?
NO

Called result for CC1CC2C3CC(F)C4=CC(=O)C=CC4(C)C3(F)C(O)CC2(C)C1C(=O)COC(=O)C(C)(C)C (configuration not stated)
NO

Identify the outcome logged in this assay for the compound shown: `CCN(CCCc1ccccc1)CCCc1ccccc1`
NO

Hi, sorry to bother you, what did the test record for `COc1c(Cl)ccc(Cl)c1C(=O)O` ?
NO

###

- assay.comment: chemical genetic growth profiling, strain panel (AID 1159580);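 also: tested at 20 µM; growth read once vehicle control cultures reached saturation at 30 °C; 1 = growth at the plate median or of vehicle wells; lower values mean less growth of the strain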
- test.settings: S. cerevisiae deletion strains, growth OD, locus YNL175C, strain NOP13, active compounds read low
Among all 5,500 compounds or so, about 2,000 (36%) were called active. Another 18% or so got no clear call; they are omitted. This is one part of the list.
assay.metric: normalized growth

So what does the record say about normalized growth for `NC(=O)C(=O)O` ?
1.01 (inactive)

###

- assay.comment: chemical genetic growth profiling, strain panel (AID 1159580);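 also: tested at 20 µM; growth read once vehicle control cultures reached saturation at 30 °C; 1 = growth at the plate median or of vehicle wells; lower values mean less growth of the strain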
- test.settings: S. cerevisiae deletion strains, growth OD, locus YML124C, strain tub3, active compounds read low
Hit rate of the full screen: of about 5,500 compounds, about 2,000 (36%) were called active. Another 18% or so got no clear call; they are omitted. The list shows a part of the results.
assay.metric: normalized growth
I only need the number, thanks.

For orientation, consider the following solved cases.
1. CO[C@]12C[C@@H](COC(=O)c3cncc(Br)c3)CN(C)[C@@H]1Cc1cn(C)c3cccc2c13 :: 1.01
2. COc1ccc(C(=O)N2CCCC2=O)cc1 :: 0.994
3. CC(=O)O[C@H]1CC[C@]2(C)C3=CC(=O)[C@@]4(C)C(C[C@@H]5OC6(OCC(C)CC6Br)[C@@H](C)[C@@H]54)C3CC[C@H]2C1 (some centres not stated) :: 0.988
4. CN1CCN(C2=Nc3ccccc3Oc3ccc(Cl)cc32)CC1 :: 0.992
5. CC(=O)O[C@H]1CC[C@]2(C)C3C(=O)[C@@H](OC(C)=O)[C@@]4(C)C(C[C@@H]5O[C@]6(CCC(C)CO6)[C@@H](C)[C@@H]54)C3CC[C@H]2C1 (some centres not stated) :: 0.991
6. N#C/C(=C\c1cccc(O)c1)C(=O)O :: 1

Next item in the queue.
Need normalized growth of CN1CC(CNC(=O)OCc2ccccc2)CC2c3cccc4c3c(cn4C)CC21 (configuration not stated) , thanks.
1

###

Recorded normalized growth for the following compounds
- assay.comment: chemical genetic growth profiling, strain panel (AID 1159580);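 also: tested at 20 µM; growth read once vehicle control cultures reached saturation at 30 °C; 1 = growth at the plate median or of vehicle wells; lower values mean less growth of the strain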
- test.settings: S. cerevisiae deletion strains, growth OD, locus YOR106W, strain vam3, active compounds read low
Hit rate of the full screen: of about 5,500 compounds, about 2,000 (36%) were called active. Not shown: some 18% with an inconclusive outcome. This is one part of the list.
Please respond with just the number, no unit label.

Solved cases below.
1) N[C@H](Cc1cc(I)c(Oc2ccc(O)c(I)c2)c(I)c1)C(=O)O :: 0.935
2) CC1=C2[C@H]3OC(=O)[C@@H](C)[C@@H]3CC[C@@]2(C)C=CC1=O :: 1
3) COc1c2ccoc2nc2c(OC)c(OCC(O)C(C)(C)O)ccc12 (stereo unspecified) :: 1.04
4) CC(=O)Nc1nnc(S(N)(=O)=O)s1 :: 1.02
5) N[C@@H]1[C@@H](O)[C@H](O)[C@@H](CO)O[C@H]1O :: 1.06

Field request: normalized growth | item: `Cc1cc(O)c(C=O)c2c1C(=O)Oc1c(COC(=O)/C=C/C(=O)O)c(O)c(C(=O)O)c(C)c1O2`
0.709

For the compound `CO[C@]12C[C@@H](COC(=O)c3cncc(Br)c3)CN(C)[C@@H]1Cc1cn(C)c3cccc2c13` , what normalized growth is on record?
0.968

Item NC(Cc1ccc(F)cc1)C(=O)O (stereo unspecified) has what recorded normalized growth?
0.992

Look up normalized growth for this compound: `CC(=O)N=c1sc(S(N)(=O)=O)nn1C`
1.01

Quick check: normalized growth of `N[C@H](Cc1ccccc1)C(=O)O` ?
1.03

Which normalized growth value is on record for `COc1c2ccccc2nc2occc12` ?
0.824
